Tested system: UniProtKB Q99828
Experimental protocol: biochemical
Measured property: IC50 (µM)
Give the value in µM but do not write µM after it.

# compound O=C1NC(=O)N(Cc2ccco2)C(=O)C1=Cc1cn(CCCOc2ccccc2)c2ccccc12 [UNC10245534] ; its IC50 = 24

# compound O=C(Nc1cccc2ncccc12)c1cccc(NS(=O)(=O)c2ccc3c(c2)OCCCO3)c1 [UNC10245399A] ; its IC50 = 59

# compound COc1ccccc1OCCC1CCN(C(=O)C2CCN(S(=O)(=O)c3cccc4nonc34)CC2)C1 (stereo not drawn) [UNC10245474A] ; its IC50 = 75

====

Tested system: CIB1 (Homo sapiens, UniProt Q99828)
Sequence (Q99828 whole entry): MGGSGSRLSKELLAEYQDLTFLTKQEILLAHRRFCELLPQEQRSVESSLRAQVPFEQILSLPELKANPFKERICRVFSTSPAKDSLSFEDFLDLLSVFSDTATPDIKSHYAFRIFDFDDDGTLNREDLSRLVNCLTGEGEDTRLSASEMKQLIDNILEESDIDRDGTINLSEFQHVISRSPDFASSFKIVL
Kindly supply the reported IC50 values for the records listed here.

COc1ccc(OCCn2cc(C=C3C(=O)NC(=O)N(Cc4ccco4)C3=O)c3ccccc32)cc1 [UNC10245538] tested on CIB1 (Homo sapiens, UniProt Q99828) gave IC50: 19 µM

Cc1cccc(OCCCn2cc(C=C3C(=O)NC(=O)N(Cc4ccco4)C3=O)c3ccccc32)c1 [UNC10245535] tested on CIB1 (Homo sapiens, UniProt Q99828) gave IC50: 6.1 µM

CC(c1cc(-c2ccccc2)[nH]n1)N(C)C(=O)C1CCN(c2cccc3c2C(=O)N(Cc2cccs2)C3=O)CC1 (stereo not shown) [UNC10245397A] tested on CIB1 (Homo sapiens, UniProt Q99828) gave IC50: 24 µM

CC(c1nnc(SCC(=O)Nc2ccc(Oc3ccccc3)cc2)n1C)N1C(=O)COc2ccccc21 (stereo not shown) [UNC10245386A] tested on CIB1 (Homo sapiens, UniProt Q99828) gave IC50: 33 µM

Cc1cc(C)cc(OCCCn2cc(C=C3C(=O)NC(=O)N(Cc4ccco4)C3=O)c3ccccc32)c1 [UNC10245541] tested on CIB1 (Homo sapiens, UniProt Q99828) gave IC50: 4.3 µM

COc1ccccc1OCCCn1cc(C=C2C(=O)NC(=O)N(Cc3ccco3)C2=O)c2ccccc21 [UNC10245533] tested on CIB1 (Homo sapiens, UniProt Q99828) gave IC50: 9.8 µM

O=C1NC(=O)N(Cc2ccco2)C(=O)C1=Cc1cn(CCCOc2ccccc2Cl)c2ccccc12 [UNC10245536] tested on CIB1 (Homo sapiens, UniProt Q99828) gave IC50: 12 µM

====

Tested system: CIB1 (Homo sapiens, UniProt Q99828)
Experimental protocol: biochemical
Kindly supply the reported pIC50 values for the records listed here.
// field semantics: pIC50 = negative decimal log of concentration (mol/L)

# compound COc1ccccc1N1CCN(C(=O)CCCc2nnc3n(CC(C)C)c(=O)c4sccc4n23)CC1 [UNC10245420A] ; its pIC50 = 4.06

# compound COc1ccccc1OCCn1cc(C=C2C(=O)NC(=O)N(Cc3ccco3)C2=O)c2ccccc21 ; its pIC50 = 4.66

# compound O=C(NCc1ccc2c(c1)OCO2)C1CCN(S(=O)(=O)c2cccc3nsnc23)CC1 [UNC10245381A] ; its pIC50 = 4.08

# compound CCOC(=O)c1cc(-c2ccc(N3CCN(C(=O)COc4ccccc4)CC3)cc2)n(-c2ccccc2OC)n1 [UNC10245416A] ; its pIC50 = 4.92

# compound Cc1noc(C)c1COc1cccc(C(=O)Nc2cccc(S(=O)(=O)Nc3cccc(C(F)(F)F)c3)c2)c1 [UNC10245406A] ; its pIC50 = 4.41

# compound CN(Cc1ccco1)C(=O)c1ccc(COc2ccc3c(c2)C(c2cccc(F)c2)N(C(=O)C2CC2)CC3)o1 (stereo not drawn) [UNC10245413A] ; its pIC50 = 4.32

# compound COc1ccc(OCCCn2cc(C=C3C(=O)NC(=O)N(Cc4ccco4)C3=O)c3ccccc32)cc1 ; its pIC50 = 4.74

# compound Cc1cc(NC(=O)CSc2nc3ccccc3c(=O)n2CC2CCC(C(=O)NCc3ccccc3Cl)CC2)n[nH]1 (stereo not drawn) [UNC10245433A] ; its pIC50 = 5.06

# compound Cc1ccc(C)c(S(=O)(=O)N2CCN(C(=O)CSc3nnc(-c4ccc5c(c4)OCO5)n3-c3ccccc3)CC2)c1 [UNC10245404A] ; its pIC50 = 4.85

# compound CCOc1ccccc1NC(=O)Nc1cccc(OCc2cc(=O)n3ccccc3n2)c1 [UNC10245432A] ; its pIC50 = 4.37

# compound COc1cccc(C(=O)N(CC(=O)Nc2ccc(N3CCN(C(=O)c4ccc(C)cc4)CC3)cc2)Cc2ccc(F)cc2)c1 [UNC10245410A] ; its pIC50 = 4.96

# compound CC1Cc2ccccc2N1C(=O)CC1CCN(S(=O)(=O)c2ccc3c(c2)oc(=O)n3C)CC1 (stereo not drawn) [UNC10245457A] ; its pIC50 = 4.36

# compound Cc1cc(OCCCn2cc(C=C3C(=O)NC(=O)N(Cc4ccco4)C3=O)c3ccccc32)cc(C)c1Cl ; its pIC50 = 4.64

# compound COc1cccc(CNC(=O)C2CCN(C(=O)[C@@H](Cc3ccccc3)NC(=O)COc3ccccc3)CC2)c1 [UNC10245418A] ; its pIC50 = 4.03

# compound COc1cccc(OCCn2cc(C=C3C(=O)NC(=O)N(Cc4ccco4)C3=O)c3ccccc32)c1 ; its pIC50 = 4.30
